molecular target: bradykinin 1 receptor (B1R) of the rat (Rattus norvegicus, UniProt P97583); construct: expressed in transfected cells; host or cells: CHO K1 cells; assay: Functional investigation on the rat bradykinin 1 receptor (B1R), Ca2+ FLIPR assay in CHO K1 rB1R cells; format: cell-based; conditions: B1R antagonism rat; test substance 10 μM; Ca2+ FLIPR, CHO K1 rB1R cells
Sequence (P97583 whole entry): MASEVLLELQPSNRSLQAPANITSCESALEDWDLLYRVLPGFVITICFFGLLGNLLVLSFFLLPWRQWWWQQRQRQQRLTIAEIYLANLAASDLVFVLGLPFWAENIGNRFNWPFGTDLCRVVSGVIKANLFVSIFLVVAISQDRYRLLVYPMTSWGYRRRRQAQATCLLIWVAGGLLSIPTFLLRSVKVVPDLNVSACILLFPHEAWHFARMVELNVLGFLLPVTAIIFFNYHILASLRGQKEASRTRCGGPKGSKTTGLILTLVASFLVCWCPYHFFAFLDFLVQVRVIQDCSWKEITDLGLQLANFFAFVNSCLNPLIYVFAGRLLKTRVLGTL
test-readout: B1R Ant. r [10 μM] % Inhibition (%)
Field format: number, assumed %, no unit text.

Completed entries (count: 8):
COc1ccc(S(=O)(=O)N2CCCCC2CCOCC(=O)NCCC2CCC(C(c3cccc(F)c3)N(C)C)CC2)cc1 (stereo not drawn) [Example 213]    49
CN(C)C(c1ccc(Cl)cc1)C1CCC(CCNC(=O)COCCN(C)S(=O)(=O)c2ccc(Cl)cc2Cl)CC1 (stereo not drawn) [Example 291]    36
CN(C)C(c1ccc(F)cc1)C1CCC(NC(=O)COCCN(C)S(=O)(=O)c2c(Cl)cc(Cl)cc2Cl)CC1 (stereo not drawn) [Example 382]    30
CN(C)C(c1ccc(Cl)cc1)C1CCC(CCNC(=O)COCCN(C)S(=O)(=O)c2ccc(Cl)cc2)CC1 (stereo not drawn) [Example 347]    56
COc1ccc(S(=O)(=O)N2CCCCC2COCC(=O)NCC2CCC(C(c3ccc(Cl)cc3)N(C)C)CC2)c(OC)c1 (stereo not drawn) [Example 280]    36
CCN(CCOCC(=O)NCC1CCC(C(CCc2ccccc2)N(C)C)CC1)S(=O)(=O)c1c(C)cc(OC)c(C)c1C (stereo not drawn) [Example 536]    95
CN(C)C(c1ccc(F)cc1)C1CCC(CCNC(=O)COCCN(C)S(=O)(=O)c2c(Cl)cc(Cl)cc2Cl)CC1 (stereo not drawn) [Example 386]    20
CN(C)C(CCc1ccccc1)C1CCC(CNC(=O)COCCN(C)S(=O)(=O)c2c(Cl)cccc2Cl)CC1 (stereo not drawn) [Example 580]    44

Ask: I would be grateful if you could share the reported B1R Ant. r [10 μM] % Inhibition for COc1ccc(S(=O)(=O)N2CCCCC2COCC(=O)NCC2CCC(C(c3ccc(F)cc3)N(C)C)CC2)c(OC)c1 (stereo not drawn) [Example 405] .
Result: 24

All figures here come from patent US8106055B2.
